Numbers sourced from paper PMC12102759.

Target: TLN1 PTB (Homo sapiens)
Sequence (Q9Y490 309-401): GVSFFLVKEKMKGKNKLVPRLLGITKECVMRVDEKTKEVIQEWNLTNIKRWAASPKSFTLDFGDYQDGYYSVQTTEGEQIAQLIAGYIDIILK
Test: biochemical
Type: binding
Measured Kd, listed per entry for reference.
ASSAY READOUT: Kd (µM)

- Ac-LADLIFTDSALYIPLE-NH2 [TPTE2_K101A]: 15
- Ac-LADLIFTDSKLYIPLE-NH2 [TPTE2 wt]: 4.5
- Ac-LADLIWTDSKLYIPLE-NH2 [TPTE2_92‐107 F97W]: 0.1
- Ac-LADLIFTDSKLYLPLE-NH2 [TPTE2_I104L]: 4.5

###

Tested on: G3BP1 NFT2
Format: binding, human
Settings: library DMS-CoV; bait G3BP1 NFT2; prey N; peptide RNAPRITFGGPSDSTG; listed as aa = residue placed at this position; column sums to 1
ASSAY READOUT: DMS PSSM value, D (position 13)

* RNAPRITFGGPSDSTG D13Y (RNAPRITFGGPSYSTG) | 0
* RNAPRITFGGPSDSTG D13R (RNAPRITFGGPSRSTG) | 0
* RNAPRITFGGPSDSTG D13P (RNAPRITFGGPSPSTG) | 1
* RNAPRITFGGPSDSTG D13E (RNAPRITFGGPSESTG) | 0
* RNAPRITFGGPSDSTG D13W (RNAPRITFGGPSWSTG) | 0
